# pIC50 per record follows
Target protein (sequence): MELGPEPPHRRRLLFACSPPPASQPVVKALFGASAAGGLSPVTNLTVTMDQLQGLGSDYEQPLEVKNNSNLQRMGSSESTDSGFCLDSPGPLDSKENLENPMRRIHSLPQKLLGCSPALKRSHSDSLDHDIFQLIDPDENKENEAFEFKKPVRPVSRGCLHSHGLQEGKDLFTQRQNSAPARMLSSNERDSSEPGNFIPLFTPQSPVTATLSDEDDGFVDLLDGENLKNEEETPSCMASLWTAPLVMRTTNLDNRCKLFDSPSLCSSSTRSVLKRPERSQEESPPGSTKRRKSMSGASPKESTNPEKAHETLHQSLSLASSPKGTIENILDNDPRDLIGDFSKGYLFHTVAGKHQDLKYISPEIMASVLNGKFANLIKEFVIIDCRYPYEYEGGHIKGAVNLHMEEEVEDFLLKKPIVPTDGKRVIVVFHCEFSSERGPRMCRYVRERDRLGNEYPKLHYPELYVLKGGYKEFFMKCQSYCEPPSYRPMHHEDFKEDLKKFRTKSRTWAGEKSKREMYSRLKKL
pIC50 here: minus log base 10 of the concentration, concentration in moles per litre.

In [3]: df
Out[3]:
                               smiles_code  recorded_metric  measured_value
0  CCCCCCCCCCN1C(=O)/C(=C\C(=O)O)c2ccccc21            pIC50            4.92

Now examine the next entry.
Data request: Suppose we examine the molecule `CCCCCCCCCCCCn1cc(CC(=O)O)c2ccccc21` ; what pIC50 value has been reported?
Data returned: 5.10

###

- test_target: M-phase inducer phosphatase 1 (Homo sapiens)
Below, each entry is listed alongside its reported IC50.
Write it as a number; the unit µM goes unstated.

Reference set (5 entries):
>>> df
                                   compound                               test_target  measured_value
0  CCCCCCCCCCCCN1C(=O)/C(=C\C(=O)O)c2ccccc21  M-phase inducer phosphatase 1 (Homo sapiens)             2.9
1  CCCCCCCCCCCCCCCCN1C(=O)/C(=C\C(=O)O)c2ccccc21  M-phase inducer phosphatase 1 (Homo sapiens)             1.6
2  CCCCCCCCCCCCN1C(=O)C(CC(=O)O)c2ccccc21 (stereo unspecified)  M-phase inducer phosphatase 1 (Homo sapiens)              50
3      CCCCCCCCCCCCN1C(=O)/C(=N/O)c2ccccc21  M-phase inducer phosphatase 1 (Homo sapiens)              33
4  CCCCCCCCCCCCCCCCN1C(=O)/C(=C/C(=O)O)c2ccccc21  M-phase inducer phosphatase 1 (Homo sapiens)             1.9

# ---- query compound ----
Data request: Lab note: need IC50 with M-phase inducer phosphatase 1 (Homo sapiens) for entry `CCCCCCCCN1C(=O)/C(=C/C(=O)O)c2ccccc21` , please look it up.
Data returned: 78
